- subjectOfTest: MAO-A (Rattus norvegicus, UniProt P21396)
- Construct: human and rat tissue to obtain the isolated forms of monoamine oxidase A and B; from tissue
- Sequence (P21396 whole entry): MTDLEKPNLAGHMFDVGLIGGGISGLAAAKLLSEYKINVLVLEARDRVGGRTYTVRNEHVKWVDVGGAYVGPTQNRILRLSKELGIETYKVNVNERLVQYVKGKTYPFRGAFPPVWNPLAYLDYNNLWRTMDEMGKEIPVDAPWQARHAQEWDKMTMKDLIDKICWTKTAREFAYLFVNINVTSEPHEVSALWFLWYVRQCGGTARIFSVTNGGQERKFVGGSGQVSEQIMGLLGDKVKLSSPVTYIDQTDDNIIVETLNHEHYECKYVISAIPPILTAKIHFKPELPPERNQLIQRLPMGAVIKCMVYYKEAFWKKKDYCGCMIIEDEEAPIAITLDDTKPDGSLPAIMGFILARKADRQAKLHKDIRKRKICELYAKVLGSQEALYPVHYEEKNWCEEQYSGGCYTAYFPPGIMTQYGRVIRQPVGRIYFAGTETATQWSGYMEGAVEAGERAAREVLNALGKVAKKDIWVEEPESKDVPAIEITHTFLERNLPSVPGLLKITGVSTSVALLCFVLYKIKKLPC
- method: Kinetic parameters of suicide-type inhibition, MAO-A
- Format: biochemical, Sprague-Dawley rat
- assayConditions: MAO-A; velocity constant for formation of the covalent irreversible complex; ± SEM
# binarize K^1cat: threshold 0.1 min⁻¹ inclusive, high side TRUE, low side FALSE

A selection of reference data follows.
C#CCN(C)[C@H](C)Cc1ccccc1 [deprenyl, reference compound]: FALSE
CC#CCN(CC#CC)Cc1cc2cc(OCc3ccccc3)ccc2[nH]1: FALSE
C=C=CCNCc1cc2cc(OCc3ccccc3)ccc2n1C: TRUE
C#CCNCc1cc2cc(OCc3ccccc3)ccc2[nH]1: FALSE

Pending molecule:
// query For this molecule, is measured K^1cat 0.1 min⁻¹ or higher? `C=C=CCNCc1cc2cc(OCc3ccccc3)ccc2[nH]1`
// result TRUE
